Catalogue of sequences with associated apparent Kd
- Test system: MS2 coat protein
- assay-text: apparent Kd, MS2 coat protein; higher = weaker binding; RNA-MaP array
- condition: ligand present: flavin mononucleotide; designed as: OFF switch for flavin mononucleotide
experimental-readout: apparent Kd (nM)

construct-sequence | unit-tag | data-value
GCUAGACAUGAGGAUCACCCAUGUGAGGAUAUUAGCCAAUCGAGUAAUCCGCUAUAGUUAAGAAGGCACGUGAU | nM | 16
UCCCAGUAACAUGAGGAUCACCCAUGUUGGAGUGUGCCUGCUCAGGAUAUUCGCGGCAUAAAAGUGAAGAAGGGAGCUCAAACG | nM | 11.3
CACAUGAGGAUCACCCAUGUGUGGUGGGUGGUGCAACAUUGUAAGGAUAUAAUGGACGUCGGCCCUUAGAAGGUACAUUGUACG | nM | 110
CUUUGACGUGAGAAGGUGCAGGGAAUACACAAGCAAGGAUAUCAUGCACAUGAGGAUCACCCAUGUCCUGUAACGUUUGGUGAC | nM | 302

====

Overview of reported apparent Kd across a group of sequences:
- Tested on: MS2 coat protein
- assay-text: apparent Kd, MS2 coat protein; higher = weaker binding; RNA-MaP array; theophylline 2 mM where present
- condition: ligand present: theophylline; designed as: OFF switch for theophylline

construct-sequence | apparent Kd [nM]
AGCCUAUUACAUGAGGAUCACCCAUGUGAUACCAGUCAGGAAACUGACCCUUGGCAGCGCAUGAGGAUCACCCAUGCGCUAGGCA | 10.2
GAUGAACUAUUUGAUACCAGACUACAUGAGGAUCACCCAUGUGUGUUUAUACUUCUGUCAGUCCCUUGGCAGCAAAUAGUUUAUC | 106
CGAUGAUGAAGGGAUACCAGAAAUGGUAUUCCUUUAUUUCUUACAUGAGGAUCACCCAUGUUCCCUUGGCAGCUUUUUAUCAUCG | 117
AAGGGAGAAUCAGAUACCAGAGUAAGAUGGCAUGAUAAUUACAUGAGGAUCACCCAUGUACUCCCUUGGCAGCUGACAAUAUAUU | 12.2
UGACAUUGCUCAGAUACCAGACAUGAGGAUCACCCAUGUGCCAAAUAAACGUACAUAAAUGUCCCUUGGCAGCUGAGCAAUGUCU | 890
GGUCUCUGGAGCGAUACCAGCUUGAUCGUACUGGCCUGGUACAUGAGGAUCACCCAUGUAAGCCCUUGGCAGCGCUCCAGAGACC | 28.1
AGCAUUGUAACAGAUACCAGACUUUUAAUGCCUCUAAUUACAUGAGGAUCACCCAUGUUUGUCCCUUGGCAGCUGUUAUGAUGCA | 226
GAGCUGAUGUAGAGAUUAUAUAAAAGAGAUACCAGUACAGAAAUGUACCCUUGGCAGCUCAACUUUACAUGAGGAUCACCCAUGU | 17.5
AUUUACAUGGUCAUAUAUAUAUCGUCAGAUACCAGACUAGAUAUAGUCCCUUGGCAGCUGUUACAUGAGGAUCACCCAUGUUAUA | 110
AUAAGUAAUGUUUCGUGUAUUAUUACAGAUACCAGACUAUACGUUGUCCCUUGGCAGCUGGAUUACAUGAGGAUCACCCAUGUUG | 27.5

====

- Tested on: MS2 coat protein
- assay-text: apparent Kd, MS2 coat protein; higher = weaker binding; RNA-MaP array
- condition: ligand present: flavin mononucleotide; designed as: OFF switch for flavin mononucleotide
Listed here: items and their measured apparent Kd.

construct-sequence | unit-tag | apparent Kd
ACUCAGUGAGGAUAUAUAGACGAGGAAAAGUGGAAACUUGAAUAGAAGGCACAUGAGGAUCACCCAUGUCGACG | µM | 0.0108
GACCUGUUAGGAUAUCGAAGGAGUCAAUACCAAGUGAGACACGAGAAGGAACAUGAGGAUCACCCAUGUGAACC | µM | 0.0157
UAUAACGAAAGAGGAUAUAUCGGCCGUCUACGGAUAGAAGGCUUUCGCUAUGGCACUGAUGAUCUACAUGAGGAUCACCCAUGU | µM | 0.00719
CAUUCUUUAGUAAGGAUAUCAACUUGUUUAUAUAAUGAGAAGGUACAUGAGGAUCACCCAUGUCUCACAUCGGU | µM | 0.0079
CCACGACUAGGAUAUACCUAUGUUCACUCGUGAUCAAGGACACAUGAGGAUCACCCAUGUAGAAGGAGUCGCUA | µM | 0.0106
CAGGAUCCGAAGAAGGGCAUCGGCCACAGGGCUGCAGGAUAUUCAAUUCAUGCAACAUGAGGAUCACCCAUGUAAUGGGCCGUU | µM | 0.0223
GGAUCACAUGAGGAUCACCCAUGUCAGGAUAUUAUGCCCUCCCAGUUGCUGAGACAUUUAAGAAGGGACGUGUA | µM | 0.0143

====

- Tested on: MS2 coat protein
- assay-text: apparent Kd, MS2 coat protein; higher = weaker binding; RNA-MaP array; FMN 200 µM where present
- condition: designed as: ON switch for flavin mononucleotide; no ligand
apparent Kd of 0.06 µM or higher: MET. Under 0.06 µM: NOT MET.

construct-sequence | assay-target | qualitative-label
CCUAAGGACACAGGAUAUAGCGUCGUGGCUGGGCUCCAACGGCGAGCGGCGCUAGAAGGGUGACCACAUGAGGAUCACCCAUGU | MS2 coat protein | MET
GCCAACGCAUGAGGAUAUGCUCCCGUUUCGGGAGCAGAAGGCAUGUCAUAAGACAUGAGGAUCACCCAUGUAGUCAAGAUGGCA | MS2 coat protein | MET
GACUCGCGCACAGGAUAUCCACAGAGCGGACGUGGAGAAGGGUGACAUGAGGAUCACCCAUGUACGUGAGUCUAGAUCACUUCC | MS2 coat protein | NOT MET
GGUACCAUCACAGGAUAUGCUUUUCUUUGGGAAGCAGAAGGGUGUAACAUGAGGAUCACCCAUGUGGUACCAGGGCGUGAGCCC | MS2 coat protein | MET
GUAGCUUAUGAGAAGGCGAUCAUGAAACAUGAUCGAGGAUAUCAUGUAAACAUGAGGAUCACCCAUGUAUGGGUAUUAUGCUAC | MS2 coat protein | MET
CGUGUCGCAUGAGGAUAUGGUCAGCUUUGCUGACCAGAAGGCAUGUCAAUAGACAUGAGGAUCACCCAUGUAGUAAAGACACGA | MS2 coat protein | MET
ACAUGAGGAUCACCCAUGUAGAAUGGAGAAGGUAGAUACUUGUGACUCUCCCAUGUACAUAGGACUGAGGAUAUUCUAAUAAUU | MS2 coat protein | NOT MET
UUAUGAGCGAUAGGAUAUACUGAGAUUGAAUGGGUAGAAGGAUCGAUCGUGUGGAAGACAUGAGGAUCACCCAUGUUACGGGCC | MS2 coat protein | NOT MET
GUGUGUUGCGGGCAGGAUAUGUAUUUGAGUACAUGAGGAUCACCCAUGUGCGCCUGUUUCAGGCGACAGAAGGGCCUAUCGCGAC | MS2 coat protein | MET

====

- Test system: MS2 coat protein
- assay-text: apparent Kd, MS2 coat protein; higher = weaker binding; RNA-MaP array; FMN 200 µM where present
- condition: designed as: OFF switch for flavin mononucleotide; no ligand
Respond with satisfied for apparent Kd values of 80 nM and above, not satisfied for values below.

construct-sequence | qualitative-label
UUUCCGCGAGGAUAUGCGGGCUGUGCUUUUCAUUUCUUACAACAUGAGGAUCACCCAUGUAGAAGGUGCUUCUU | satisfied
GUCCUCCGUGCCCUUAACGCACAUGAGGAUCACCCAUGUAGGAGAAGGGCCCAACAAAUCAAAGGGCAGGAUAUCCAAAUCAUG | not satisfied
GGACGGAAAGUGAGGAUAUGCUCUACCUCGGUAGAGCAGAAGGCACAUGAGGAUCACCCAUGUGAUUACUGUUC | not satisfied
UGUCGGAGCAGAGGAUAUUACAUGAGGAUCACCCAUGUAUGAACCAAUAGUUGGAAACAGCAAUGUAAGAAGGCUGCUCCGACA | not satisfied
UCCUUGUCCUGAGGAUAUCCGCGGUUCCCAAAAGGAGAAGGCAGGACAUGAGGAUCACCCAUGUACCCAGAAAACGUGCAGAGC | not satisfied
GCAUAUCAGGGAGGAUAUGACAUGAGGAUCACCCAUGUAAUUAUGGCUCUGUCAGAAGGCCCAUCAUCACUAUAGUGACGAGAA | satisfied
UACCCUUGUGAGAAGGCGCCGCAGAUUUUACGGCGAGGAUAUCACAUGAGGAUCACCCAUGUUCCUGAGCCUACAAGUGUGGGC | satisfied
GUCAGCUCGUGAGGAUAUACAACACUGCUUCGGCAGUGUAUUAUGAUCACAUGAGGAUCACCCAUGUAGAAGGCACGAGCUGAU | not satisfied
AGUCGGAGCAGAGGAUAUUACAUGAGGAUCACCCAUGUAGGUACCAAUAGCUGGAAACAGCAAUGUAAGAAGGCUGCUCCGACA | satisfied
UGAAAUCAUGUAGGAUAUGCAUGGCGAAGCUACGCAGAAGGACAUGAGGAUCACCCAUGUUAUAGCGUCCGAUAAAGGAUGCAA | satisfied
UUUUAACAUGAGGAUCACCCAUGUGAGGAUAUCGAAAUUUAUAUUAAUAUUUUUAAAACGAGAAGGCACAUUUU | not satisfied
ACAGUGCGAGGAUAUACAUGAGGAUCACCCAUGUGAGAGAAAUAAGUGAGGAAGAAAAGUAGAAGGCGCGUUGA | not satisfied
AGUCGGAGCAGAGGAUAUACAUGAGGAUCACCCAUGUAAUUAAGUGAAGCCUGGAAACAGGCAAUGUAGAAGGCUGCUCCGACA | not satisfied
UCAUACAUGAGGAUCACCCAUGACAUGAGGAUCACCCAUGUGCAGGAUAUACGUGAUAUAAUAUAGUAGAAGGGCAGACUAUAU | not satisfied
UGAGCAUCAGGAUAUAUGUGGCGACCGUGAGGUCGAAGGUUACAUGAGGAUCACCCAUGUAGAAGGGAUGUUCU | not satisfied
UGUCGGAGCAGAGGAUAUUACAUGAGGAUCACCCAUGUAUCAACCAAUAGCUGGAAACAGCAAUGUAAGAAGGCUGCUCCGACA | not satisfied
CCGAUAAGGAGAGGAUAUGGACAUGAGGAUCACCCAUGUACAUGGGAAUAUAUACUGAAUUUUUACUAGAAGGCUUACAUAAAU | not satisfied
GCACGGUUGGUAGGAUAUCAUUGCGAUUAGCUAUGAGAAGGACCACAUGAGGAUCACCCAUGUCCUCUAAUUAGCCUGCCGUGC | satisfied

Origin of measurements: the EternaBench riboswitch data
